For reference, the following Ki results for Peptidyl-prolyl cis-trans isomerase FKBP1A (Homo sapiens, UniProt P62942) were taken from various sources.
Field: numeric (nM). Do not append units.

Take a look at these entries with their results.
>>> df
                                   compound                                  testedon  measurednumber
0  O=C(OCCCc1ccccc1)[C@@H]1CCCN1C(=O)NC12C[C@H]3C[C@@H](C1)C[C@@H](C2)C3  Peptidyl-prolyl cis-trans isomerase FKBP1A (Homo sapiens, UniProt P62942)            1000
1  COc1cc([C@@H](C(=O)N2CCCC[C@H]2C(=O)N[C@H](Cc2ccccc2)C(N)=O)C2CCCCC2)cc(OC)c1OC  Peptidyl-prolyl cis-trans isomerase FKBP1A (Homo sapiens, UniProt P62942)            5600

Record for COc1cc2c(c(OC)c1)C1C3CCCC(C(=O)N1CC2)N3S(=O)(=O)c1ccc(Br)cc1 (configuration not stated) under target or system Peptidyl-prolyl cis-trans isomerase FKBP1A (Homo sapiens, UniProt P62942): Ki reported as 92

Record for COc1cc2c(c(OC)c1)C1C3CCCC(C(=O)N1CC2)N3S(=O)(=O)c1ccc(C#N)cc1 (configuration not stated) under target or system Peptidyl-prolyl cis-trans isomerase FKBP1A (Homo sapiens, UniProt P62942): Ki reported as 82

Record for O=C(OCCCc1ccc(Cl)cc1)C1CCCCN1S(=O)(=O)c1ccccc1 (configuration not stated) under target or system Peptidyl-prolyl cis-trans isomerase FKBP1A (Homo sapiens, UniProt P62942): Ki reported as 3800

Record for O=C(NCCCc1ccccc1)C1CCCCN1S(=O)(=O)Cc1ccccc1 (configuration not stated) under target or system Peptidyl-prolyl cis-trans isomerase FKBP1A (Homo sapiens, UniProt P62942): Ki reported as 2200

Record for `O=C(OCc1ccccc1)[C@@H]1CCCN1C(=O)NC12C[C@H]3C[C@@H](C1)C[C@@H](C2)C3` under target or system Peptidyl-prolyl cis-trans isomerase FKBP1A (Homo sapiens, UniProt P62942): Ki reported as 2100

###

For reference, the following pKi results for Peptidyl-prolyl cis-trans isomerase FKBP1A (Homo sapiens) were taken from various sources.
# pKi = -log10(concentration in molar units)

Take a look at these entries with their results.
>>> df
                                   compound  metricname  measurednumber
0  O=C(OCCCc1ccc(Cl)cc1)C1CCCCN1S(=O)(=O)Cc1ccccc1 (centres undefined)         pKi            6.38
1  CCC(C)(C)C(=O)C(=O)N1CCCC1C(=O)OCCCc1cc(OC)ccc1OC (centres undefined)         pKi            6.60
2  Cc1ccc(S(=O)(=O)N2CCCCC2C(=O)OCCCc2ccc(F)cc2)cc1 (centres undefined)         pKi            5.85
3  CCC(C)(C)C(=O)C(=O)N1CCC[C@H]1C(=O)NCCCc1ccccc1         pKi            5.96
4  O=C(OCCCc1ccccc1)[C@@H]1CCCN1C(=S)NC12C[C@H]3C[C@@H](C1)C[C@@H](C2)C3         pKi            5.28
5  O=C(NCc1ccccc1)C1CCCCN1S(=O)(=O)/C=C/c1ccccc1 (centres undefined)         pKi            5.41
6  O=C(OCCCc1ccc(Br)cc1)[C@@H]1CCCN1C(=S)NC12C[C@H]3C[C@@H](C1)C[C@@H](C2)C3         pKi            5.20
7  CCC(C)(C)C(=O)C(=O)N1CCCCC1C(=O)OCCCc1cc(OC)c(OC)c(OC)c1 (centres undefined)         pKi            7.60

Record for `COc1ccc(CCCOC(=O)[C@@H]2CCCN2/C(S)=N/C2CCCCC2)cc1OC` under target or system Peptidyl-prolyl cis-trans isomerase FKBP1A (Homo sapiens): pKi reported as 7.07

Record for COc1ccc2c(c1)CCN1C(=O)C3CCCC(C21)N3S(=O)(=O)N1CCCCC1 (centres undefined) under target or system Peptidyl-prolyl cis-trans isomerase FKBP1A (Homo sapiens): pKi reported as 6.44

Record for `COc1cc([C@@H](C(=O)N2CCCC[C@H]2C(=O)N[C@@H](CCC2CCCCC2)C(N)=O)C2CCCCC2)cc(OC)c1OC` under target or system Peptidyl-prolyl cis-trans isomerase FKBP1A (Homo sapiens): pKi reported as 4.65

Record for `O=C(OCCc1ccccc1)[C@@H]1CCCN1C(=O)NC12C[C@H]3C[C@@H](C1)C[C@@H](C2)C3` under target or system Peptidyl-prolyl cis-trans isomerase FKBP1A (Homo sapiens): pKi reported as 5.89

Record for COc1cc(C(=O)C(=O)N2C3CCCC2C2c4cc(C)ccc4CCN2C3=O)cc(OC)c1OC (centres undefined) under target or system Peptidyl-prolyl cis-trans isomerase FKBP1A (Homo sapiens): pKi reported as 7.07

Record for CCCCNC(=O)C1CCCN1S(=O)(=O)CCc1ccccc1 (centres undefined) under target or system Peptidyl-prolyl cis-trans isomerase FKBP1A (Homo sapiens): pKi reported as 4.38

Record for `COc1ccc(CCCOC(=O)[C@@H]2CCCN2S(=O)(=O)Cc2ccccc2)cc1` under target or system Peptidyl-prolyl cis-trans isomerase FKBP1A (Homo sapiens): pKi reported as 7.66

Record for O=C(C(=O)N1CCCCC1C(=O)OCCCc1cccnc1)c1ccccc1 (centres undefined) under target or system Peptidyl-prolyl cis-trans isomerase FKBP1A (Homo sapiens): pKi reported as 6.14

Record for CCC(C)(C)C(=O)C(=O)N1CCCC1C(=O)OCCCC1CCCCC1 (centres undefined) under target or system Peptidyl-prolyl cis-trans isomerase FKBP1A (Homo sapiens): pKi reported as 6.71

Record for CCN(CC)c1ccc(C(=O)C(=O)N2C3CCCC2C2c4c(cc(OC)cc4OC)CCN2C3=O)cc1 (centres undefined) under target or system Peptidyl-prolyl cis-trans isomerase FKBP1A (Homo sapiens): pKi reported as 6.00

Record for `COc1cc([C@@H](C(=O)N2CCCC[C@H]2C(=O)N[C@@H](CC(C)C)C(N)=O)C2CCCCC2)cc(OC)c1OC` under target or system Peptidyl-prolyl cis-trans isomerase FKBP1A (Homo sapiens): pKi reported as 5.18
